# Assay Details: acute toxicity, intraperitoneal, mice (DL50)
# Protocol Conditions: mouse, in vivo, ip, suspension in carboxymethylcellulose, observed one week, read-out: DL50 (average lethal dose)
Catalogue of LD50 at 168 h values

Entry under review: `CNCc1cnc(C)s1` . Reported LD50 at 168 h?
~700 mg/kg

Entry under review: `Cc1ncc(CN(C)C)s1` . Reported LD50 at 168 h?
~450 mg/kg

Entry under review: `Cc1ncc(CN)s1` . Reported LD50 at 168 h?
> 1000 mg/kg

* * *

# Tested on: plasmatic free fatty acids
# Assay Details: Antilipolytic activity: determination of plasmatic free fatty acids in the blood
# Type: in vivo, Male rats of the Sprague Dawley SPF strain
# Protocol Conditions: Rattus norvegicus, 1 h; starved rats, oral, one hour after administration; read-out: DA50 (dose which reduced by 50% the level of free fatty acids as compared to controls)
Catalogue of ED50 values

// worked examples, ED50 included
{"columns": ["Compound", "ED50"],
 "data": [
  ["CNCc1cnc(C)s1 [Example 2]", "~4 mg/kg"],
  ["CCCc1ncc(CN)s1 [Example 5]", "~8 mg/kg"],
  ["Cc1ncc(CN)s1 [Example 1]", "~0.8 mg/kg"]
]}

// next entry
Entry under review: Cc1ncc(CN(C)C)s1 [Example 3] . Reported ED50?
~5 mg/kg

* * *

# Assay Details: acute toxicity, intraperitoneal, mice (DL50)
# Protocol Conditions: mouse, in vivo, ip, suspension in carboxymethylcellulose, observed one week, read-out: DL50 (average lethal dose)
Experimental Endpoint: LD50 at 168 h

// worked examples, LD50 at 168 h included
{"columns": ["Compound", "Measured"],
 "data": [
  ["CCCc1ncc(CN)s1 [Example 5]", "~650 mg/kg"],
  ["Cc1ncc(CN2CCN(C)CC2)s1 [Example 7]", "~500 mg/kg"]
]}

// next entry
Entry under review: Cc1ncc(CN(CCO)CCO)s1 [Example 4] . Reported LD50 at 168 h?
~900 mg/kg

All figures here come from patent US4108994A.
